Where these numbers come from: ChEMBL document CHEMBL4321862

tgt: UniProtKB P42866
method-notes: Agonist activity at recombinant mouse mu opioid receptor expressed in CHO cell membrane assessed as [35]-GTPgammaS binding incubated for […] by scintillation counting method relative to DAMGO
quantity-kind: Emax

INSERT INTO results (input_smiles, tgt, observed_value) VALUES
  ('Cl.O=C(N[C@H]1CC[C@@]2(O)[C@H]3Cc4ccc(O)c5c4[C@@]2(CCN3CC2CC2)[C@H]1O5)c1cccc2cc[nH]c12', 'UniProtKB P42866', '19.1%'),
  ('Cl.O=C(N[C@H]1CC[C@@]2(O)[C@H]3Cc4ccc(O)c5c4[C@@]2(CCN3CC2CC2)[C@H]1O5)c1ccc2ccoc2c1', 'UniProtKB P42866', '30.5%'),
  ('Cl.O=C(N[C@@H]1CC[C@@]2(O)[C@H]3Cc4ccc(O)c5c4[C@@]2(CCN3CC2CC2)[C@H]1O5)c1cc2ccccc2s1', 'UniProtKB P42866', '59%');

---

tgt: Mu-type opioid receptor (Mus musculus)
method-notes: Agonist activity at recombinant mouse mu opioid receptor expressed in CHO cell membrane assessed as [35]-GTPgammaS binding incubated for […] by scintillation counting method relative to DAMGO
# reported Emax; entries follow
quantity-kind: Emax

INSERT INTO assay_data (input_smiles, observed_value) VALUES
  ('Cl.O=C(N[C@H]1CC[C@@]2(O)[C@H]3Cc4ccc(O)c5c4[C@@]2(CCN3CC2CC2)[C@H]1O5)c1cc2ccccc2o1', '34%'),
  ('Cl.O=C(N[C@H]1CC[C@@]2(O)[C@H]3Cc4ccc(O)c5c4[C@@]2(CCN3CC2CC2)[C@H]1O5)c1csc2ccccc12', '14.3%'),
  ('O=C(N[C@H]1CC[C@@]2(O)[C@H]3Cc4ccc(O)c5c4[C@@]2(CCN3CC2CC2)[C@H]1O5)c1cccc2ccoc12', '12.9%');

---

tgt: Kappa-type opioid receptor (Mus musculus)
pKi: −log10 of the molar value.
quantity-kind: pKi

INSERT INTO results (input_smiles, observed_value) VALUES
  ('Cl.O=C(N[C@H]1CC[C@@]2(O)[C@H]3Cc4ccc(O)c5c4[C@@]2(CCN3CC2CC2)[C@H]1O5)c1ccc2occc2c1', 8.37),
  ('Cl.O=C(N[C@@H]1CC[C@@]2(O)[C@H]3Cc4ccc(O)c5c4[C@@]2(CCN3CC2CC2)[C@H]1O5)c1cc2ccccc2o1', 9.64),
  ('Cl.O=C(N[C@@H]1CC[C@@]2(O)[C@H]3Cc4ccc(O)c5c4[C@@]2(CCN3CC2CC2)[C@H]1O5)c1cccc2sccc12', 9.12),
  ('Cl.O=C(N[C@H]1CC[C@@]2(O)[C@H]3Cc4ccc(O)c5c4[C@@]2(CCN3CC2CC2)[C@H]1O5)c1cccc2occc12', 8.30),
  ('Cl.O=C(N[C@@H]1CC[C@@]2(O)[C@H]3Cc4ccc(O)c5c4[C@@]2(CCN3CC2CC2)[C@H]1O5)c1ccc2ccsc2c1', 9.70);

---

tgt: UniProt:P42866
method-notes: Agonist activity at recombinant mouse mu opioid receptor expressed in CHO cell membrane assessed as [35]-GTPgammaS binding incubated for […] by scintillation counting method
EC50 values, listed per item
quantity-kind: EC50 (nM)

INSERT INTO measurements (input_smiles, quantity_kind, observed_value) VALUES
  ('Cl.O=C(N[C@H]1CC[C@@]2(O)[C@H]3Cc4ccc(O)c5c4[C@@]2(CCN3CC2CC2)[C@H]1O5)c1cc2ccccc2s1', 'EC50', 4.02),
  ('Cl.O=C(N[C@@H]1CC[C@@]2(O)[C@H]3Cc4ccc(O)c5c4[C@@]2(CCN3CC2CC2)[C@H]1O5)c1coc2ccccc12', 'EC50', 0.47),
  ('Cl.O=C(N[C@@H]1CC[C@@]2(O)[C@H]3Cc4ccc(O)c5c4[C@@]2(CCN3CC2CC2)[C@H]1O5)c1ccc2ccoc2c1', 'EC50', 0.59),
  ('Cl.O=C(N[C@@H]1CC[C@@]2(O)[C@H]3Cc4ccc(O)c5c4[C@@]2(CCN3CC2CC2)[C@H]1O5)c1cc2ccccc2o1', 'EC50', 0.39),
  ('Cl.O=C(N[C@@H]1CC[C@@]2(O)[C@H]3Cc4ccc(O)c5c4[C@@]2(CCN3CC2CC2)[C@H]1O5)c1ccc2sccc2c1', 'EC50', 0.19),
  ('Cl.O=C(N[C@H]1CC[C@@]2(O)[C@H]3Cc4ccc(O)c5c4[C@@]2(CCN3CC2CC2)[C@H]1O5)c1cccc2sccc12', 'EC50', 1.05),
  ('Cl.O=C(N[C@@H]1CC[C@@]2(O)[C@H]3Cc4ccc(O)c5c4[C@@]2(CCN3CC2CC2)[C@H]1O5)c1cccc2occc12', 'EC50', 0.59),
  ('Cl.O=C(N[C@H]1CC[C@@]2(O)[C@H]3Cc4ccc(O)c5c4[C@@]2(CCN3CC2CC2)[C@H]1O5)c1cccc2ccsc12', 'EC50', 6.21),
  ('Cl.O=C(N[C@@H]1CC[C@@]2(O)[C@H]3Cc4ccc(O)c5c4[C@@]2(CCN3CC2CC2)[C@H]1O5)c1ccc2ccsc2c1', 'EC50', 0.21),
  ('Cl.O=C(N[C@@H]1CC[C@@]2(O)[C@H]3Cc4ccc(O)c5c4[C@@]2(CCN3CC2CC2)[C@H]1O5)c1csc2ccccc12', 'EC50', 0.37);
